Each record here notes measured self-aminoacylation.
# System: biotinyl-Val-oxazolone
# EXPERIMENTAL_DETAILS: self-aminoacylation, catalytic enhancement (BVO) (fold over background); higher = more active; k-Seq, kA / k0A0; sequences stand for … in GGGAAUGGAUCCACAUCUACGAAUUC…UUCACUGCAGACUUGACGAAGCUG
Variants at the floor of the assay were thinned out.

| CHAIN_SEQUENCE | TESTED_ON | self-aminoacylation |
| --- | --- | --- |
| AUUACCCUGGUCCUCGAGGGA [Fam2.1 aminoacylation ribozyme variant] | biotinyl-Val-oxazolone | 2.15 |
| AUUCACCUAGGUCAUCGCGAG [Fam2.2 aminoacylation ribozyme variant] | biotinyl-Val-oxazolone | 2.31 |
| CCACACUUCAAGCAUUCGGUA [Fam1B.1 aminoacylation ribozyme variant] | biotinyl-Val-oxazolone | 2.44 |
| CCACACCUCAAGCAAUCGGUA [Fam1B.1 aminoacylation ribozyme variant] | biotinyl-Val-oxazolone | 2.1 |
| GAGUUUGCUAAAAGUCGCAAG [Fam3.1 aminoacylation ribozyme variant] | biotinyl-Val-oxazolone | 2.1 |
| CCCCACGUCAAGCAAUCGGUC [Fam1B.1 aminoacylation ribozyme variant] | biotinyl-Val-oxazolone | 2.4 |

###

# System: biotinyl-Trp-oxazolone
# EXPERIMENTAL_DETAILS: self-aminoacylation, catalytic enhancement (BWO) (fold over background); higher = more active; k-Seq, kA / k0A0; sequences stand for … in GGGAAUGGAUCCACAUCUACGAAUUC…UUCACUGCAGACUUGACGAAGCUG
Fewer inactive variants are shown than the library holds.
ASSAY_METRIC: self-aminoacylation

| CHAIN_SEQUENCE | READOUT_VALUE |
| --- | --- |
| CUACUUCAACAAAUCGGUCUG [Fam1A.1 aminoacylation ribozyme variant] | 5.45 |
| AUUUCCCUGGUCAUCGAGCGA [Fam2.1 aminoacylation ribozyme variant] | 2.59 |
| CAACACUUCAAGAAAUCGGUC [Fam1B.1 aminoacylation ribozyme variant] | 5.88 |
| AUUACCCUGGACAUCAAGUGA [Fam2.1 aminoacylation ribozyme variant] | 2.98 |
| AAGUUAGGUAAUAGUCGCAAG [Fam3.1 aminoacylation ribozyme variant] | 2.11 |
| CUCCUUCAAACAAUCGGUCUA [Fam1A.1 aminoacylation ribozyme variant] | 9.25 |
| CUUCUUCAAACAAUCGGUUUG [Fam1A.1 aminoacylation ribozyme variant] | 13.8 |
| CCACGCUUCAAGUAAUCGGUC [Fam1B.1 aminoacylation ribozyme variant] | 12.9 |

###

# System: biotinyl-Met-oxazolone
# EXPERIMENTAL_DETAILS: self-aminoacylation, catalytic enhancement (BMO) (fold over background); higher = more active; k-Seq, kA / k0A0; sequences stand for … in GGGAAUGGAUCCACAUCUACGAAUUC…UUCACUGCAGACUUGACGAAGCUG
Fewer inactive variants are shown than the library holds.
Each record here notes measured self-aminoacylation.

| CHAIN_SEQUENCE | self-aminoacylation |
| --- | --- |
| AUUCACCUACGUCAUCUGGUG [Fam2.2 aminoacylation ribozyme variant] | 2.09 |
| AAAGUUGCUAAUAGUCGCAAG [Fam3.1 aminoacylation ribozyme variant] | 2.06 |
| AUUACCCUUGUCAUCGUGUGA [Fam2.1 aminoacylation ribozyme variant] | 2.59 |
| AAGCUUGCUAAUAGUCGCAAA [Fam3.1 aminoacylation ribozyme variant] | 2.21 |
| AUUACCUUCGUCAUCGAGUGA [Fam2.1 aminoacylation ribozyme variant] | 2.22 |
| AUUGACCUAGCUCAUCGGGUG [Fam2.2 aminoacylation ribozyme variant] | 2.14 |
| ACGUUUGCUAAAAGUCGCAAG [Fam3.1 aminoacylation ribozyme variant] | 2.09 |
| AUUACCCUGGACAUCAAGUGA [Fam2.1 aminoacylation ribozyme variant] | 2.33 |
| AAGUUUGCGAAUAGUCGCAAU [Fam3.1 aminoacylation ribozyme variant] | 2.13 |

###

# Tested on: biotinyl-Phe-oxazolone
# EXPERIMENTAL_DETAILS: self-aminoacylation, catalytic enhancement (BFO) (fold over background); higher = more active; k-Seq, kA / k0A0; sequences stand for … in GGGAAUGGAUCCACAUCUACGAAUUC…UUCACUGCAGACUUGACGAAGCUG
Fewer inactive variants are shown than the library holds.

| CHAIN_SEQUENCE | self-aminoacylation |
| --- | --- |
| CGACUUCAAACAAUCGGACUG [Fam1A.1 aminoacylation ribozyme variant] | 6.95 |
| CUACUUCAACAAAUCGGUCUG [Fam1A.1 aminoacylation ribozyme variant] | 7.2 |
| CAACUUCAAAGAAUCGGUCUG [Fam1A.1 aminoacylation ribozyme variant] | 7.1 |

###

# Test system: biotinyl-Phe-oxazolone
# EXPERIMENTAL_DETAILS: self-aminoacylation, catalytic enhancement (BFO) (fold over background); higher = more active; k-Seq, kA / k0A0; sequences stand for … in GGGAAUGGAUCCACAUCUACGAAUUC…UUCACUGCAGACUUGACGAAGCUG
Variants at the floor of the assay were thinned out.
Each record here notes measured self-aminoacylation.

| CHAIN_SEQUENCE | self-aminoacylation |
| --- | --- |
| CUCCUUCAAUCAAUCGGUCUG [Fam1A.1 aminoacylation ribozyme variant] | 24.6 |
| GUUACCCUGGUCAUCGAUUGA [Fam2.1 aminoacylation ribozyme variant] | 2.77 |
| AAAUUUGCUAAUAGUCGGAAG [Fam3.1 aminoacylation ribozyme variant] | 2.57 |
| AUGUUUGCGAAUAGUCGCAAG [Fam3.1 aminoacylation ribozyme variant] | 2.47 |
| CUACUUCAACUAAUCGGUCUG [Fam1A.1 aminoacylation ribozyme variant] | 12.9 |
| AAGUUUGCUAAUAGUCAAAAG [Fam3.1 aminoacylation ribozyme variant] | 3.26 |
| CGUCACUUCAAGCAAUCGGUC [Fam1B.1 aminoacylation ribozyme variant] | 22 |
| AAUCACCUAGGUCAUCGUGUG [Fam2.2 aminoacylation ribozyme variant] | 5.37 |
| AAGUUUGCUAAUAGUCUCAAG [Fam3.1 aminoacylation ribozyme variant] | 15.4 |
| CUUCUUCAAACAAUCAGUCUG [Fam1A.1 aminoacylation ribozyme variant] | 12.3 |
| CCUCGCUUCAAGCAAUCGGUC [Fam1B.1 aminoacylation ribozyme variant] | 81.2 |
| AUGUUUGCUAAUAGUCGUAAG [Fam3.1 aminoacylation ribozyme variant] | 18.7 |
| CUGCUUCAAAUAAUCGGUCUG [Fam1A.1 aminoacylation ribozyme variant] | 23.7 |
| UCACACUUCAAGUAAUCGGUC [Fam1B.1 aminoacylation ribozyme variant] | 12.7 |
| CGAAUUCAAACAAUCGGUCUG [Fam1A.1 aminoacylation ribozyme variant] | 4.97 |
| UUACUUCAAUCAAUCGGUCUG [Fam1A.1 aminoacylation ribozyme variant] | 19.7 |
| AAGUUUGGUAAUAGUCGCGAG [Fam3.1 aminoacylation ribozyme variant] | 2.51 |
| AUUACCCUGGACAUCAAGUGA [Fam2.1 aminoacylation ribozyme variant] | 5.55 |
| CUACUUCAAACCAUCGGUCGG [Fam1A.1 aminoacylation ribozyme variant] | 3.15 |
| AAGUUAGUUAAUAGUCGCAAG [Fam3.1 aminoacylation ribozyme variant] | 2.7 |

###

# Tested on: biotinyl-Phe-oxazolone
# EXPERIMENTAL_DETAILS: self-aminoacylation, catalytic enhancement (BFO) (fold over background); higher = more active; k-Seq, kA / k0A0; sequences stand for … in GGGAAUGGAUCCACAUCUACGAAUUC…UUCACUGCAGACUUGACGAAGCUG
Variants at the floor of the assay were thinned out.
# label = Yes if self-aminoacylation >= 6 else No

| CHAIN_SEQUENCE | CLASS |
| --- | --- |
| AUUCAGCUAGGUCAUCGGGUC [Fam2.2 aminoacylation ribozyme variant] | Yes |
| CUACCUCAAACAAUCGGGCUG [Fam1A.1 aminoacylation ribozyme variant] | No |
| AUUCACCUAGGUCGUCGGGUU [Fam2.2 aminoacylation ribozyme variant] | No |
| AUUCUCCUAGGUCAUCGGUUG [Fam2.2 aminoacylation ribozyme variant] | Yes |
| CAGUUUGCUAAGAGUCGCAAG [Fam3.1 aminoacylation ribozyme variant] | No |
| AAGUUUCCUACUAGUCGCAAG [Fam3.1 aminoacylation ribozyme variant] | No |
| AAGUUUUCUAAUAGUUGCAAG [Fam3.1 aminoacylation ribozyme variant] | No |
| CUGCGUCAAACAAUCGGUCUG [Fam1A.1 aminoacylation ribozyme variant] | Yes |
| AAGUUUCCUAAUAGUCGCCAG [Fam3.1 aminoacylation ribozyme variant] | No |
| CCAAACUUCAAGUAAUCGGUC [Fam1B.1 aminoacylation ribozyme variant] | Yes |
| CAGUUUGCUAAUAGUCGCAGG [Fam3.1 aminoacylation ribozyme variant] | No |
| AAGUUUGCGAAUAGUCGCGAG [Fam3.1 aminoacylation ribozyme variant] | Yes |
| CUGCUUCAAACAAUCGGUCAG [Fam1A.1 aminoacylation ribozyme variant] | Yes |
| AUUUACCUAGGUCAUCGGCUG [Fam2.2 aminoacylation ribozyme variant] | No |
| CUACUUCAAUCAAUCGGCCUG [Fam1A.1 aminoacylation ribozyme variant] | Yes |
| AUUCACCUCGGUCAUCGUGUG [Fam2.2 aminoacylation ribozyme variant] | No |
| AUUCACCUAGGUCAUCAUGUG [Fam2.2 aminoacylation ribozyme variant] | No |
| AAGAUUGCUGAUAGUCGCAAG [Fam3.1 aminoacylation ribozyme variant] | No |
| AAGUUUUCAAAUAGUCGCAAG [Fam3.1 aminoacylation ribozyme variant] | No |
| AUUCACCUACGUCAUCUGGUG [Fam2.2 aminoacylation ribozyme variant] | Yes |
| AAGUUUGCUAAUUGUCGCAAA [Fam3.1 aminoacylation ribozyme variant] | Yes |
| UUACUUCAAACAAUCGGUCAG [Fam1A.1 aminoacylation ribozyme variant] | Yes |
| AAGUUUGCUAACAGUCGGAAG [Fam3.1 aminoacylation ribozyme variant] | Yes |
| AUUCACCAAGGUCAUCGGGUC [Fam2.2 aminoacylation ribozyme variant] | No |
| AUUCACCUAGUUCAUAGGGUG [Fam2.2 aminoacylation ribozyme variant] | Yes |
| CUAGUUCAGACAAUCGGUCUG [Fam1A.1 aminoacylation ribozyme variant] | No |
| AAGUUUUCUAAUAGUCGAAAG [Fam3.1 aminoacylation ribozyme variant] | No |
| AAGUUUCCUUAUAGUCGCAAG [Fam3.1 aminoacylation ribozyme variant] | No |

The measured values listed here are drawn from the supplement of paper PMC9233669.
